ASSAYED SYSTEM: D(2) dopamine receptor (Homo sapiens) (UniProt P14416)
Sequence (P14416 whole entry): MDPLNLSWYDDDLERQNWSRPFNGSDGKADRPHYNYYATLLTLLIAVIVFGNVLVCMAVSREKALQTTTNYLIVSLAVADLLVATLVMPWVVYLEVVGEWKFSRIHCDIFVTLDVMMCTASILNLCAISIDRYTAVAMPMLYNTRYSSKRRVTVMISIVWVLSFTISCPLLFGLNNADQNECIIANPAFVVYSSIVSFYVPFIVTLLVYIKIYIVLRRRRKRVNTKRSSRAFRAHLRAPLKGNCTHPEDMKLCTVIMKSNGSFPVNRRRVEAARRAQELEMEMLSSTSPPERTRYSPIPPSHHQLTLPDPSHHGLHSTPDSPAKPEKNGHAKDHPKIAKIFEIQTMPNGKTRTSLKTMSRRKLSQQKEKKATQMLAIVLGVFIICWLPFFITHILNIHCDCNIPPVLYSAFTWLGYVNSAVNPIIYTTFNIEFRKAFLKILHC
CONDITION SUMMARY: Compound concentration 10 µM; call rule not given here
Outcome codes: active, inactive

compound=C[C@H](CO)Nc1nc(SCc2cccc(Cl)c2F)nc2[nH]c(=O)sc12 label_class=inactive
compound=CC(C)(N)C(=O)N[C@H](COCc1ccccc1)C(=O)N1CCC2(CC1)CN(S(C)(=O)=O)c1ccccc12 label_class=inactive
compound=CN(C)S(=O)(=O)c1ccc(NC(=S)N2CCC(C(O)(c3ccccc3)c3ccccc3)CC2)cc1 label_class=inactive
compound=C[C@@H](N)Cc1c[nH]cn1 label_class=inactive
compound=CCc1nn(CCCN2CCN(c3cccc(Cl)c3)CC2)c(=O)n1CCOc1ccccc1 label_class=active
compound=COc1cccc([C@@H](C)NCCCc2ccccc2Cl)c1 label_class=inactive
compound="CC(C)NCC(O)c1ccc(N)c(C#N)c1 (stereo unspecified)" label_class=inactive
compound=O=C(O)c1n[nH]c2c1C[C@H]1C[C@@H]21 label_class=inactive
compound=CC(C)(C)NC[C@H](O)COc1nsnc1N1CCOCC1 label_class=inactive
compound=N#Cc1c[nH]c2c(C(=O)N3CCN(CCc4ccc(F)cc4)CC3)cccc12 label_class=inactive
compound=O=C(Nc1ccc(Cl)cc1)Nc1cccc(-c2cccc(N3CCCC3)n2)c1 label_class=inactive

---

ASSAYED SYSTEM: Alpha-1B adrenergic receptor (Homo sapiens)
CONDITION SUMMARY: Compound concentration 10 µM
Description: PDSP Primary Binding target: ADRA1B - Compounds are tested at 10 uM concentration, plate are incubated at room temperature in the dark for 90 minutes. Reaction are stopped by vacuum filtration onto 0.3% polyethyleneimine soaked filter mats using Filtermate harvester. Scintilation cocktail is then melted onto microwave-dried filters on a hot plate and the radio activity is counted in Microbia counter.
ASSAY ENDPOINT: inhibition (%)

smiles_data=CC(C)C[C@H](NC(=O)N1CCCCCC1)C(=O)N[C@H](Cc1cn(C)c2ccccc12)C(=O)N[C@H](Cc1ccccn1)C(=O)O measured_number=10.1
smiles_data=COc1ccc(NS(=O)(=O)c2sc3ccc(Cl)cc3c2C)cc1N1CCNCC1 measured_number=65.1
smiles_data=CN1CCC(C(=O)c2cccc(NC(=O)c3c(F)cc(F)cc3F)n2)CC1 measured_number=8.88
smiles_data=CC1=C2C[C@H]3[C@@H](CC=C4C[C@@H](O)CC[C@@]43C)[C@@H]2CC[C@]12O[C@@H]1C[C@H](C)CN[C@H]1[C@H]2C measured_number=13.7

---

ASSAYED SYSTEM: D(1B) dopamine receptor (Homo sapiens)
CONDITION SUMMARY: Compound concentration 10 µM; call rule not given here
Outcome codes: active, inactive

smiles_data=CNC[C@H](O)c1ccc(O)c(O)c1 label_class=inactive
smiles_data=COc1cc2nc(N3CCN(C(=O)c4ccco4)CC3)nc(N)c2cc1OC label_class=inactive
smiles_data=C[C@@H](NCCCc1cccc(C(F)(F)F)c1)c1cccc2ccccc12 label_class=inactive
smiles_data=OC[C@H]1O[C@@H](n2cnc3c(NC4CCCC4)ncnc32)[C@H](O)[C@@H]1O label_class=active
smiles_data=CC(C)(N)C(=O)N[C@H](COCc1ccccc1)C(=O)N1CCC2(CC1)CN(S(C)(=O)=O)c1ccccc12 label_class=inactive

---

Overview of reported inhibition across a group of compounds:
ASSAYED SYSTEM: Beta-1 adrenergic receptor (Homo sapiens)
CONDITION SUMMARY: Compound concentration 10 µM
Description: PDSP Primary Binding target: ADRB1 - Compounds are tested at 10 uM concentration, plate are incubated at room temperature in the dark for 90 minutes. Reaction are stopped by vacuum filtration onto 0.3% polyethyleneimine soaked filter mats using Filtermate harvester. Scintilation cocktail is then melted onto microwave-dried filters on a hot plate and the radio activity is counted in Microbia counter.
ASSAY ENDPOINT: inhibition (%)

smiles_data=Clc1cccc(COc2cncc(N3CCNCC3)n2)c1 assay_endpoint=inhibition measured_number=50.8
smiles_data=CCCCN1CCC(COC(=O)c2cc(Cl)c(N)c3c2OCCO3)CC1 assay_endpoint=inhibition measured_number=10.7
smiles_data=COc1ccccc1CN[C@H]1C2CCN(CC2)[C@H]1C(c1ccccc1)c1ccccc1 assay_endpoint=inhibition measured_number=17
smiles_data=Cc1nc2sccn2c(=O)c1CCN1CCC(=C(c2ccc(F)cc2)c2ccc(F)cc2)CC1 assay_endpoint=inhibition measured_number=19
smiles_data=CC1CCN(CC[C@H]2CCCN2S(=O)(=O)c2cccc(O)c2)CC1 assay_endpoint=inhibition measured_number=9.71
smiles_data=COc1cccc([C@H](O)C2CCN(CCc3ccc(F)cc3)CC2)c1OC assay_endpoint=inhibition measured_number=32.2
